System: HCT116 WT cells
Experiment: HCT116 proliferation assay, WT cells (CellTiter-Glo, 6 days)
Format: cell-based
Details: Homo sapiens, HCT-116, 144 h, read-out: Prolif_HCT116-WT IC50
Method: HCT116 MTAP null and WT cells were seeded in 96-well tissue culture plates in RPMI 1640 media + 10% fetal bovine serum. Plates were incubated overnight at 37° C. and 5% CO2. […] Effects on cell viability were measured with the CellTiter-Glo® Luminescent Cell Viability Assay (Promega) per manufacturer’s recommendation. Assay plates were read on an EnVision™ Multilabel Reader using the Ultra-Sensitive luminescence module.
Reported IC50 by item:

I have this molecule here, CC1CCCC1N(Cc1ccc(C(F)(F)F)cn1)C(=O)c1ccc2nc(N)c(Br)cc2c1 (stereo not drawn) , and I need its recorded IC50.
> 10 µM

###

test system: HCT116 MTAP null cells; assay: HCT116 proliferation assay, MTAP null cells (CellTiter-Glo, 6 days); type: cell-based; settings: HCT116-MTAP null, 144 h, read-out: Protif_ HCT116-MTAP null IC50
Value Type: IC50 (nM)
A number alone suffices; assume nM.

{"Compound": "Cc1cc2cc(C(=O)N(Cc3ccc(C(F)(F)F)cn3)[C@@H]3c4ccccc4C[C@H]3O)ccc2nc1N", "IC50 / nM": 540}

Request - read-out IC50 | tested on HCT116 MTAP null cells | compound `Cc1cc(N)nc2ccc(C(=O)N(Cc3ccc(C(F)(F)F)cn3)Cc3ncn(C)n3)cc12`
177

Similarly, CC[C@H](c1ncccn1)N(Cc1ccc(C(F)(F)F)nn1)C(=O)c1ccc2nc(N)c(C)cc2c1 (single isomer, unassigned) ?
86

Field entry: `CNC(=O)c1ccc(CN(Cc2ccc(C(F)(F)F)cn2)C(=O)c2ccc3nc(N)c(C)cc3c2)cc1`
200

Could you do the same for `Cc1cc2cc(C(=O)N(Cc3cccc(-n4ccnn4)c3)Cc3ccc(C(F)(F)F)cn3)ccc2nc1N` , please?
310

Next record, please: Cc1cc2cc(C(=O)N(Cc3ncccc3Cl)[C@H](C)c3ncccn3)c(F)cc2nc1N (single isomer, unassigned)
261

One more compound: Cc1cc2cc(C(=O)N(Cc3ccc(C(F)(F)F)cn3)C3Cc4ccccc4C3O)ccc2nc1N (stereo not drawn)
510

Query `N#Cc1ccc(CN(C(=O)c2ccc3nc(N)c(Br)cc3c2)[C@@H](c2ncccn2)C2CC2)nc1` next
173

Would you mind doing `C#CCN(Cc1ccc(C(F)(F)F)cn1)C(=O)c1ccc2nc(N)c(C)cc2c1` as well?
550

Entry `Cc1cc(C(F)(F)F)ccc1CN(Cc1ncccc1F)C(=O)c1ccc2nc(N)c(C)cc2c1` please
128

Also need Cc1cc2cc(C(=O)N(Cc3ccc(C#N)cn3)C3CCCC3C#N)c(F)cc2nc1N (stereo not drawn) , thanks.
222

// query: Cc1cc2cc(C(=O)N(Cc3ccc(Cl)nn3)[C@H](C)c3ncccn3)ccc2nc1N (single isomer, unassigned)
29

Now consider `Cc1cc2cc(C(=O)N(Cc3ccc(F)cn3)Cc3ccc(C(F)(F)F)cn3)ccc2nc1N` and answer again.
434

Try the compound Cc1cc2cc(C(=O)N(Cc3ccc(C(F)(F)F)cn3)C(C)c3ncon3)ccc2nc1N (stereo not drawn)
56

Field entry: COc1ccc(CN(C(=O)c2ccc3nc(N)c(Br)cc3c2)C(C)c2ncn(C)n2)nn1 (stereo in doubt)
184

###

tested on: HCT116 MTAP null cells; assay: HCT116 proliferation assay, MTAP null cells (CellTiter-Glo, 6 days); assay type: cell-based; settings: HCT116-MTAP null, 144 h, read-out: Protif_ HCT116-MTAP null IC50
Each item that follows carries a reported pIC50.
Reminder that pIC50 is minus the log10 of a molar concentration.

Some molecules with recorded pIC50:
{"Molecule": "CCOc1ccc(CN(C(=O)c2cnc3nc(N)c(Br)cc3c2)[C@H](C)c2ncccn2)nn1", "Target": "HCT116 MTAP null cells", "pIC50": 6.56}
{"Molecule": "Cc1cc2cc(C(=O)N(Cc3ccc(OC(F)(F)F)nn3)C(C)c3ncccn3)ccc2nc1N (centres unmarked)", "Target": "HCT116 MTAP null cells", "pIC50": 7.22}

Tell me the measured pIC50 of Cc1cc2cc(C(=O)N(Cc3ccc(C(F)(F)F)cn3)[C@H](C)c3ncon3)ccc2nc1N (single isomer, unassigned) , please.
7.62

Now the same for Cc1cc2cc(C(=O)N(Cc3ccc(C(F)(F)F)cn3)CC3CCCC(O)C3)ccc2nc1N (centres unmarked)
6.30

Same for `Cc1cc2cc(C(=O)N(Cc3ccc(C#N)cn3)[C@H](C)c3ncccn3)ccc2nc1N`
6.96

Another molecule to check: Cc1cc2cc(C(=O)N(Cc3ccc(C(F)F)cn3)[C@H](C)c3ncc(F)cn3)ccc2nc1N (single isomer, unassigned)
7.00

Again, but for `COCCN(Cc1ccc(C(F)(F)F)cn1)C(=O)c1ccc2nc(N)c(C)cc2c1`
6.71

###

Test system: HCT116 WT cells
Experiment: HCT116 proliferation assay, WT cells (CellTiter-Glo, 6 days)
Assay type: cell-based
Conditions: Homo sapiens, HCT-116, 144 h, read-out: Prolif_HCT116-WT IC50
Experimental: HCT116 MTAP null and WT cells were seeded in 96-well tissue culture plates in RPMI 1640 media + 10% fetal bovine serum. Plates were incubated overnight at 37° C. and 5% CO2. […] Effects on cell viability were measured with the CellTiter-Glo® Luminescent Cell Viability Assay (Promega) per manufacturer’s recommendation. Assay plates were read on an EnVision™ Multilabel Reader using the Ultra-Sensitive luminescence module.
IC50 reference
# value in µM; strip the unit string

// known answers, use as guide
{"Compound": "C[C@H](c1ncccn1)N(Cc1cc(Cl)c(C#N)cn1)C(=O)c1ccc2nc(N)c(Br)cc2c1 [Example 745]", "Target": "HCT116 WT cells", "Unit Abbreviation": "µM", "IC50": 1.24}
{"Compound": "Cc1cc2cc(C(=O)N(CCc3ccon3)Cc3ccc(C(F)(F)F)cn3)ccc2nc1N [Example 585]", "Target": "HCT116 WT cells", "Unit Abbreviation": "µM", "IC50": 11}
{"Compound": "Cc1cc2cc(C(=O)N(Cc3ccc(Br)cn3)[C@H](C)c3ncccc3F)ccc2nc1N [Example 400]", "Target": "HCT116 WT cells", "Unit Abbreviation": "µM", "IC50": 0.96}
{"Compound": "Cc1cc2cc(C(=O)N(Cc3ccc(CC(N)=O)cc3)Cc3ccc(C(F)(F)F)cn3)ccc2nc1N [Example 680]", "Target": "HCT116 WT cells", "Unit Abbreviation": "µM", "IC50": 7.7}
{"Compound": "Cc1cc2cc(C(=O)N(Cc3ccc(C4=CCN(C(=O)OC(C)(C)C)CC4)cn3)[C@H](C)c3ncccn3)ccc2nc1N [Example 547]", "Target": "HCT116 WT cells", "Unit Abbreviation": "µM", "IC50": 0.443}

For the compound Cc1cc2cc(C(=O)N(Cc3ccc(C(F)(F)F)nn3)[C@@H]3CCOc4cccnc43)ccc2nc1N (single isomer, unassigned) [Example 520] , what IC50 is on record?
0.737

Also need CC(=O)N1CC=C(c2ccc(CN(C(=O)c3ccc4nc(N)c(C)cc4c3)[C@H](C)c3ncccn3)nc2)CC1 [Example 548] , thanks.
2.08

Repeat for the following compound: C[C@H](c1ncccn1)N(Cc1ccc(C(F)(F)F)cn1)C(=O)c1ccc2nc(N)c(Br)cc2c1 [Example 434]
2.42

Likewise for CCOc1ccc(CN(C(=O)c2ccc3nc(N)c(C)cc3c2)[C@H](C)c2ncccn2)nn1 [Example 377] ?
2.56

Okay, and Cc1cc2cc(C(=O)N(Cc3ccc(C#N)cn3)[C@H](C)c3ccccn3)ccc2nc1N (single isomer, unassigned) [Example 473] ?
5.11

Same read-out for Cc1cc2cc(C(=O)N(Cc3ccc(Cl)c(C)n3)[C@H](C)c3ncccn3)ccc2nc1N (single isomer, unassigned) [Example 468] ?
0.853

And for Cc1cc2cc(C(=O)N(Cc3cnc(C(F)(F)F)cn3)[C@H](C)c3ncccn3)ccc2nc1N (single isomer, unassigned) [Example 449] ?
5.9

Can you handle Cc1cc2cc(C(=O)N(Cc3ccc(Br)cn3)[C@@H]3CCCN(C)C3=O)ccc2nc1N (single isomer, unassigned) [Example 448] next?
5.23

Now the compound C[C@H](c1ncn(C)n1)N(Cc1ccc(C(F)F)cn1)C(=O)c1ccc2nc(N)c(I)cc2c1 [Example 839]
1.99

###

system: HCT116 WT cells; assay: HCT116 proliferation assay, WT cells (CellTiter-Glo, 6 days); assay type: cell-based; conditions: Homo sapiens, HCT-116, 144 h, read-out: Prolif_HCT116-WT IC50
Let's look at some molecules and their measured IC50.
Field: numeric (µM). Do not append units.

{"Molecule": "Cc1cc2cc(C(=O)N(Cc3ccc(C#N)cn3)[C@@H]3CCCn4ncnc43)ccc2nc1N (single isomer, unassigned)", "Value Type": "IC50", "Value Measured": 6.38}
{"Molecule": "Cc1cc2cc(C(=O)N(Cc3ccc(C(F)(F)F)cn3)[C@H](C)c3cnccn3)ccc2nc1N (single isomer, unassigned)", "Value Type": "IC50", "Value Measured": 4.32}
{"Molecule": "Cc1cc2cc(C(=O)N(Cc3ccc(C(F)F)nn3)[C@H](C)c3ncccn3)ccc2nc1N", "Value Type": "IC50", "Value Measured": 1.67}

Fill blank: measured IC50 of the molecule Cc1cc2cc(C(=O)N(Cc3ccc(OC(F)F)nn3)C(C)c3ncccn3)ccc2nc1N (stereo not drawn) is ____.
1.17

What about this molecule? Cc1cc2cc(C(=O)N(Cc3ccc(C(F)(F)F)cn3)[C@H](C)c3ncc(F)cn3)ccc2nc1N (single isomer, unassigned)
0.899

Next: `Cc1cc2cc(C(=O)N(Cc3ccc(Br)cn3)CC(C)C)ccc2nc1N`
7.05

Continue with `Cc1cc2cc(C(=O)N(Cc3ccc(C(F)(F)F)nc3C)[C@H](C)c3ncccn3)ccc2nc1N`
4.12

// query: `Cc1cc2cc(C(=O)N(Cc3ncc(C#N)cc3C)[C@H](C)c3ncccn3)ccc2nc1N`
5.09

Next molecule up: Cc1cc2cc(C(=O)N(Cc3ccc(C(F)(F)F)nn3)[C@@H]3CCCn4ccnc43)ccc2nc1N (single isomer, unassigned)
2.63
